# target-entity: Orexin/Hypocretin receptor type 1 (Homo sapiens, UniProt O43613);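 note: antagonism measured against Orexin-A challenge at about its EC80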
# Sequence (O43613 whole entry): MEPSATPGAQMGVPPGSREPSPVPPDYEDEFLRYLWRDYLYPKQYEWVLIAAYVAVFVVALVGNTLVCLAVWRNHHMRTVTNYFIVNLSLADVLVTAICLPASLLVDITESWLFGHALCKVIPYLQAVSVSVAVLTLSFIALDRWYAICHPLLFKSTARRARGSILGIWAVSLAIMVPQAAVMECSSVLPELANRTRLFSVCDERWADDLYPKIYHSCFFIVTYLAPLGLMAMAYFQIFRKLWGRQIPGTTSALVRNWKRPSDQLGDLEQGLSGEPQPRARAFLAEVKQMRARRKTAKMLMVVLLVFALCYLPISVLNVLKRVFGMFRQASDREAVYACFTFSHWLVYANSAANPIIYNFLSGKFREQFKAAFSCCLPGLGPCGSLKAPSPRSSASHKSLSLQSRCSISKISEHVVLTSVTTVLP
# test-protocol: Homogeneous Time Resolved Fluorescence (HTRF)-based cell-based high throughput dose response assay for antagonists of the orexin 1 receptor (OX1R; HCRTR1). [Related pubchem assays (depositor defined):AID434989, AID435008, AID463079, AID485270, AID492963, AID492964, AID492965, AID493232, AID504717, AID504718]
# Assay type: functional
Activity calls are given as the source filed them.
# IC50 per record follows

compound: Cc1csc(-c2coc3cc(O)cc(C)c3c2=O)n1
IC50: 2.54 µM (active)
--
compound: Cc1cc(O)cc2c(=O)c3ccccc3sc12
IC50: 3.64 µM (active)
--
compound: CCCCNC(=O)CCC(=O)NNc1nc2ccccc2c2nc(-c3ccccc3)nn12
IC50: 2.69 µM (active)
--
compound: O=c1cc(CN2CC(O)Cc3ccc4ccccc4c32)nc2sccn12 (stereo not given)
IC50: 4.12 µM (active)
--
compound: CN(Cc1ccccc1)C(=O)c1[nH]cnc1C(=O)N[C@@H](Cc1ccccc1)C(=O)OC(C)(C)C
IC50: 0.515 µM (active)

* * *

# target-entity: Sentrin-specific protease 6 (Homo sapiens);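 note: Luminescence-based dose-response confirmatory assay of SENP6 inhibition, following up an ultra-high-throughput screen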
# Sequence (Q9GZR1 whole entry): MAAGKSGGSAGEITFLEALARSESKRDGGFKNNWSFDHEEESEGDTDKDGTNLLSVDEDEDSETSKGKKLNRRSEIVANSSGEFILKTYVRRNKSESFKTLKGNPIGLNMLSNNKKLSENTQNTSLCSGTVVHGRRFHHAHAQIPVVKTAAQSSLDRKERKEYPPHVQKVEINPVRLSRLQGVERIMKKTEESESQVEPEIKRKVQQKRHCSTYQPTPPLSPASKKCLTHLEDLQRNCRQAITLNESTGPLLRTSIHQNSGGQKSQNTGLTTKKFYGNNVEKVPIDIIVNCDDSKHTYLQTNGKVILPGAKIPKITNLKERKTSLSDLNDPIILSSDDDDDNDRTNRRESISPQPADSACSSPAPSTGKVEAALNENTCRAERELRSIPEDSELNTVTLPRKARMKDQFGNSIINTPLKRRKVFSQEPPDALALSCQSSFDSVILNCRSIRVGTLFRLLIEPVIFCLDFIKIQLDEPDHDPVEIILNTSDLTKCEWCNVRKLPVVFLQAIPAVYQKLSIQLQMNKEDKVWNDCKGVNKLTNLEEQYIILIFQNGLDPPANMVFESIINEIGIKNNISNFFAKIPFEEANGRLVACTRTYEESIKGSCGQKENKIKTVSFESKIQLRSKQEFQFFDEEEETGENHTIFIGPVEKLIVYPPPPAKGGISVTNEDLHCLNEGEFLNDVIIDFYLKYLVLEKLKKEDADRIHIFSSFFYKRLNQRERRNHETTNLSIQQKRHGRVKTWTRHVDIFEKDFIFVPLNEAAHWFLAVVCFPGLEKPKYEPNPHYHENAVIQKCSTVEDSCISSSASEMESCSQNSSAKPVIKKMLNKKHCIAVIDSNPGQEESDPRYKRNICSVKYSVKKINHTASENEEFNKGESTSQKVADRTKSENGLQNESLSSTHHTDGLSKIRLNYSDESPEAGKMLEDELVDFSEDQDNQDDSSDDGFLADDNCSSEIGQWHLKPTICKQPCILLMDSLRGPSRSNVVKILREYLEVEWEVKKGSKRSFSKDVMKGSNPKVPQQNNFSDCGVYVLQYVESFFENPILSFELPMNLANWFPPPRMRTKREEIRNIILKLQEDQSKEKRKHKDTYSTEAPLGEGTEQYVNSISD
# Format: functional
Active and inactive are the calls of the source.

smiles-notation: Clc1ccc2nc(-c3ccc(Br)s3)cn2c1
IC50: 12.3 µM (active)

smiles-notation: O=C(Nc1ccc2ccccc2c1)c1cccc(F)c1
IC50: 5.72 µM (active)

smiles-notation: Oc1ccc(N=Nc2c(O)ccc3ccccc23)cc1
IC50: 13 µM (active)

smiles-notation: Cc1ccc(/C=C/c2nc(O)c3ccccc3n2)cc1
IC50: 0.961 µM (active)

smiles-notation: O=C1N=C(NS(=O)(=O)Cc2ccccc2)S/C1=C1\C(=O)Nc2ccccc21
IC50: 15.7 µM (active)

* * *

# test-protocol: Luminescence Cell-Based Dose Response HTS to Identify Inhibitors of 5'UTR Stem-Loop Driven Prion Protein mRNA Translation in H4 Neuroglioblastoma Cells. [Related pubchem assays: 1827 (Project Summary), 1813 (Primary HTS)]
# Type: functional
Calls of active or inactive are those of the source.
In this section, each of the compounds is paired with its reported EC50.

compound: OCCN1CCN(CC(O)COc2ccc(C34CC5CC(CC(C5)C3)C4)cc2)CC1 (stereo not given)
EC50: > 120 µM (not active)
--
compound: CCC(C)n1ncn(-c2ccc(N3CCN(c4ccc(OCC5COC(Cn6cncn6)(c6ccc(Cl)cc6Cl)O5)cc4)CC3)cc2)c1=O (stereo not given) [ITRACONAZOLE]
EC50: 50 µM (active)
--
compound: Cc1nc2ccc(-c3nc4cc(N)ccc4[nH]3)cc2[nH]1
EC50: 16.6 µM (active)
--
compound: Cc1cc(C)c(C2C3=C(Nc4c2c(C)nn4-c2ccccn2)c2ccccc2C3=O)c(C)c1 (stereo not given)
EC50: > 120 µM (not active)
--
compound: O=C(NCc1ccccc1)c1c(Cl)nc(Cl)c(Cl)c1Cl
EC50: > 120 µM (not active)
--
compound: C=CCn1c(SCc2ccc(Cl)cc2)nc2c1c(=O)[nH]c(=O)n2C
EC50: < 0.1 µM (active)
--
compound: O=C1NC[C@@H](Cc2cccc3ccccc23)N(CC2(c3ccccc3)CC2)C1=O
EC50: > 120 µM (not active)
--
compound: Nc1ccc(Oc2ccccc2-c2ccccc2)cc1
EC50: 9.75 µM (active)
--
compound: O=C1C=C(N2CCCCC2)c2ccccc2C1=O
EC50: 8.27 µM (active)
--
compound: CCc1ccc(O)c(CNCCNCc2cc(CC)ccc2O)c1
EC50: 12 µM (active)

* * *

# target-entity: Tyrosyl-DNA phosphodiesterase 2 (Homo sapiens, UniProt O95551)
# Sequence (O95551 whole entry): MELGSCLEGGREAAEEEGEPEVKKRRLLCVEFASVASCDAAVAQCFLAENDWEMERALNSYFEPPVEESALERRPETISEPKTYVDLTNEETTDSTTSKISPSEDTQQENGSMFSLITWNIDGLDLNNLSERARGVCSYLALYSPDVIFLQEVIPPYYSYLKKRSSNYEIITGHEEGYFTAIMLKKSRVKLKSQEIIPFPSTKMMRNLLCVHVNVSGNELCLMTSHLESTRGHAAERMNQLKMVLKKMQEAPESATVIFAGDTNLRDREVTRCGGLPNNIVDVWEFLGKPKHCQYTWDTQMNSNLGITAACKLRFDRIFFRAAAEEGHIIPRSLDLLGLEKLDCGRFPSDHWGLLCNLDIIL
# test-protocol: potency against TDP2 phosphodiesterase activity – biochemical, epi absorbance, IC50, dose response (AID 743297)
The source made the active and inactive calls.
Possible outcomes: y for active, n for inactive

molecule: O=C1C(=O)c2cccnc2-c2ncccc21
target-entity: Tyrosyl-DNA phosphodiesterase 2 (Homo sapiens, UniProt O95551)
assigned-label: n

molecule: Cc1ccc2c(c1C)-c1c(ccc(C)c1C)C(=O)C2=O
target-entity: Tyrosyl-DNA phosphodiesterase 2 (Homo sapiens, UniProt O95551)
assigned-label: y

molecule: CC(=O)NC1C(=O)N(CCN2CCOCC2)c2ccc(F)cc21 (centres undefined)
target-entity: Tyrosyl-DNA phosphodiesterase 2 (Homo sapiens, UniProt O95551)
assigned-label: n

molecule: O=C1C=C(N2CCCCC2)c2ccccc2C1=O
target-entity: Tyrosyl-DNA phosphodiesterase 2 (Homo sapiens, UniProt O95551)
assigned-label: y

* * *

# target-entity: UniProt P05186
# Sequence (P05186 whole entry): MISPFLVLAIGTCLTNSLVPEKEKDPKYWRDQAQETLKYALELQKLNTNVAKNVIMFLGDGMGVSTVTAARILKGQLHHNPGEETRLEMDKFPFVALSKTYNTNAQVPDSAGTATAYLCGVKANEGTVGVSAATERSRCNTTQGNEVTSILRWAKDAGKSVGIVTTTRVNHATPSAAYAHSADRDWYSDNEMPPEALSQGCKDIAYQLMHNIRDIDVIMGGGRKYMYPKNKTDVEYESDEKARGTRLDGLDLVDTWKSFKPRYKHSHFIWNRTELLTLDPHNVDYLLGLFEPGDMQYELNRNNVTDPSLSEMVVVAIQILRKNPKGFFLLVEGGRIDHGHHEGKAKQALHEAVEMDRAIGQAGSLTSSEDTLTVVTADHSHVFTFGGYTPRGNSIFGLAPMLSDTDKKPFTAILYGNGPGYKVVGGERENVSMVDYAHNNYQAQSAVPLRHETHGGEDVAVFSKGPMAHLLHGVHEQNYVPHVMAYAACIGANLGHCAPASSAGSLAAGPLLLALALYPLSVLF
# test-protocol: TNAP enzyme inhibition by screening hits, dose response, selectivity assay for mouse IAP inhibitor project, biochemical, human TNAP, uHTS hits (AID 488906)
# Format: functional
Active and inactive are the calls of the source.
Outcomes: true = active, false = inactive

smiles-notation: Cc1nonc1C(=O)N/N=C/c1ccc(O)c(O)c1
target-entity: UniProt P05186
assigned-label: true
--
smiles-notation: O=C(CCO)c1ccc(O)cc1
target-entity: UniProt P05186
assigned-label: false
--
smiles-notation: CCn1nc(C)c(CN2CCC(C(=O)Nc3cccc(-c4cccc(F)c4)c3)CC2)c1C
target-entity: UniProt P05186
assigned-label: true
--
smiles-notation: COc1ccccc1CNC(=O)CCNS(=O)(=O)c1ccc2[nH]c(=O)oc2c1
target-entity: UniProt P05186
assigned-label: true
--
smiles-notation: O=C1c2cccc(O)c2C(=O)c2c(O)cc(CO)cc21
target-entity: UniProt P05186
assigned-label: false
--
smiles-notation: O=C(COC(=O)c1ccccc1)Nc1ncc([N+](=O)[O-])s1
target-entity: UniProt P05186
assigned-label: true
--
smiles-notation: C=CCn1cc(CN2CCC(C(=O)Nc3cccc(-c4cccc(Cl)c4)c3)CC2)c(C)n1
target-entity: UniProt P05186
assigned-label: true
